target: unrelated Fc-fused recombinant protein; test: ELISA, lysate on plate-bound antigen
Answer each item with its documented ELISA Fc Control (RSU).
Give the number; RSU is assumed, so skip it.

Q) Return reported ELISA Fc Control (RSU); argument: ISOP121AR5P1B8 (designed binder, not shown: small tags and cut ends, FN3 domain; E. coli lysate in the ELISA) LPAPKNLVISRVTEDSARLSWDKRTQFAFDSFLIQYQESEKVGEAIVLTVPGSERSYDLTGLKPGTEYTVSIYGVPTWSGRTQSNPLSAIFTT
A) 640

Q) Return reported ELISA Fc Control (RSU); argument: ISOP121BR5P1C6 (designed binder, not shown: small tags and cut ends, FN3 domain; E. coli lysate in the ELISA) LPAPKNLVVSRVTEDSARLSWRKQEQYFDSFLIQYQESEKVGEAIVLTVPGSERSYDLTGLKPGTEYTVSIYGVYSRPKAEFTSNPLSAIFTT
A) 720

This collection of values is drawn from patent US20180162928A1.
